- EXPERIMENTAL_TARGET: UniProtKB Q8WUI4
- Sequence (Q8WUI4 whole entry, canonical isoform): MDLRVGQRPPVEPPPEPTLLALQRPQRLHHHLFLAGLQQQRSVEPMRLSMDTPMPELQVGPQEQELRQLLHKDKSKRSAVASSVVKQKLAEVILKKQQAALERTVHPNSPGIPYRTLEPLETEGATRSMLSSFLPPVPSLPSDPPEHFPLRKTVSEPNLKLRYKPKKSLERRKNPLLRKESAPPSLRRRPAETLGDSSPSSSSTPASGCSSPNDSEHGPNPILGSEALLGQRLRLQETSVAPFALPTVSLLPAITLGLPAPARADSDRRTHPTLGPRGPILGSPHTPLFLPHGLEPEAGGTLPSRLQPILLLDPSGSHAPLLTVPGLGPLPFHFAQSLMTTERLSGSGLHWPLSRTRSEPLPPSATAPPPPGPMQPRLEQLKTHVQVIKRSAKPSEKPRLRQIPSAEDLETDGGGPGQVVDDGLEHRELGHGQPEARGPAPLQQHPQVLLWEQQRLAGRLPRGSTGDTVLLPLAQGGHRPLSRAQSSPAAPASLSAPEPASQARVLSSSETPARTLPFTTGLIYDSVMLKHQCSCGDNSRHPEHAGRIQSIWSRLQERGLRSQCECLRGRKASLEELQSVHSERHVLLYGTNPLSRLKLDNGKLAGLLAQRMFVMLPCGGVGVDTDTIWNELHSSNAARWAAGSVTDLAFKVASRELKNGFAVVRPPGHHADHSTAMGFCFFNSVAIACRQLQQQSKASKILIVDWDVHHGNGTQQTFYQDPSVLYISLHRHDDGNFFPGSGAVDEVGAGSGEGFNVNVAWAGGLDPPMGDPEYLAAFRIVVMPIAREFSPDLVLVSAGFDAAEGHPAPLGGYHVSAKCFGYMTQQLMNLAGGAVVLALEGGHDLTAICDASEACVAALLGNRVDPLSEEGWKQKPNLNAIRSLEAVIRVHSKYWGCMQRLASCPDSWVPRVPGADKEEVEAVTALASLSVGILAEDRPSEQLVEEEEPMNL
- TEST_METHOD_NOTES: HDAC isoform selectivity, HDAC7
- Format: biochemical
- TEST_CONTEXT: HDAC subtype panel
QUANTITY_KIND: IC50

- MOLECULE: "O=C(CCCCCCC(=O)N1CCC(C(=O)Nc2ccc([C@@H]3[C@H]4CSCN4[C@]4(C(=O)Nc5cc(Cl)ccc54)[C@H]3C(=O)c3ccccc3)cc2)CC1)NO [compound 11b]"
  QUANTITY_KIND: "IC50"
  RESULT: "> 10 µM"

---

- EXPERIMENTAL_TARGET: HDAC6 (Homo sapiens)
- Sequence (Q9UBN7 1-1215): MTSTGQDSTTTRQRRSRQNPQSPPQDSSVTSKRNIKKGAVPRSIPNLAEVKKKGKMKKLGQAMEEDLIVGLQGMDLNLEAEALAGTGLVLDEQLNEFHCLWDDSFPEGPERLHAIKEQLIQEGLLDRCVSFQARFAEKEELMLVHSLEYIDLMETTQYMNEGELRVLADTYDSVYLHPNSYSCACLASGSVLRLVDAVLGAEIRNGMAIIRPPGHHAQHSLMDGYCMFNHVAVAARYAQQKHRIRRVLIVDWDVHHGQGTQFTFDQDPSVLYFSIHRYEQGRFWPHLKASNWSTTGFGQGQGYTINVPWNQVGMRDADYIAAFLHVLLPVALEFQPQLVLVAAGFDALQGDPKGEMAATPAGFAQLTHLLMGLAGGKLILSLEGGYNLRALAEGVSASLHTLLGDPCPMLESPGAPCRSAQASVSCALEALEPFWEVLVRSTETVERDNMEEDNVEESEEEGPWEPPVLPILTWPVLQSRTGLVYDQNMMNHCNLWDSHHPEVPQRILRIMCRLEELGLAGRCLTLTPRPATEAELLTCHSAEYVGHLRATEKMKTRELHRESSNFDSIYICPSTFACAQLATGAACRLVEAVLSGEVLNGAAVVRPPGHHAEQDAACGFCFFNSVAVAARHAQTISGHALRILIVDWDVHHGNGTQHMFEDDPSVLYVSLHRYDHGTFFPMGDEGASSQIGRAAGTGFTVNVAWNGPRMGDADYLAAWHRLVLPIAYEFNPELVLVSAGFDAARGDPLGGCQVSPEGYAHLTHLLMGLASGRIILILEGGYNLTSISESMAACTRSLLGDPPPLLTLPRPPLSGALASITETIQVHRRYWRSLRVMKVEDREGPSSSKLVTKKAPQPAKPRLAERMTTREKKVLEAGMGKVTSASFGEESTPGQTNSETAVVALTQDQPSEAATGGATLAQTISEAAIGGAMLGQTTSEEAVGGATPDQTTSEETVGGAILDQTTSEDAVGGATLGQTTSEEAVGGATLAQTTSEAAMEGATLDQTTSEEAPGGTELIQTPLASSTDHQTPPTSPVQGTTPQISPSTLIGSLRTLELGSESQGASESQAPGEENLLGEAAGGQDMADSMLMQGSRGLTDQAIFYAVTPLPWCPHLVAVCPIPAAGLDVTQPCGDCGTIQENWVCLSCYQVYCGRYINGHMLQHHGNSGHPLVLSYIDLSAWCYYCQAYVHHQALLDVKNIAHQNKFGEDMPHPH
- TEST_METHOD_NOTES: HDAC isoform selectivity, HDAC6
- TEST_CONTEXT: HDAC subtype panel
pIC50: −log10 of the molar value.

- COMPOUND: "O=C(CCCCCCC(=O)N1CCC(C(=O)Nc2ccc([C@@H]3[C@H]4CSCN4[C@]4(C(=O)Nc5cc(Cl)ccc54)[C@H]3C(=O)c3ccccc3)cc2)CC1)NO [compound 11b]"
  pIC50: 6.92
